Target: SHP2-C SH2;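 also: peptide library displayed on the E. coli surface as eCPX fusions, selected cells deep-sequenced, score is each peptide's frequency after selection divided by its frequency in the input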
Assay: SH2 binding enrichment of the phosphorylated peptide, bacterial display (enrichment ratio); higher = better substrate or ligand; peptides without Tyr show the background
Label rule, in plain words: SH2 binding enrichment of 0.7 and up is label 1, under 0.7 is label 0.

                    item_sequence  target_or_system  discrete_label
0  SRDPFYEMLTA [CYTH1_Y382_A386T]        SHP2-C SH2         label 1
1    ICANKYMVESC [RPL10_Y75_K78E]        SHP2-C SH2         label 1
2   SETDDYAEIIV [PTK2_Y397_D402V]        SHP2-C SH2         label 1
3  LRGEDCGFSVD [PRKCI_Y430_Y430C]        SHP2-C SH2         label 0
4    LDFPEYNGVDR [CASQ1_Y43_D44N]        SHP2-C SH2         label 0
5        DPEAAYTTRGG [EPHA3_Y779]        SHP2-C SH2         label 0

Would you say WVYNHYRWFIW [BRCA2_Y2624_I2627F] shows SH2 binding enrichment at minimum 0.7?
label 1

Follow-up item: YFCRWYRNRKS [EREG_Y144]
label 0

Next sequence up: FGSSSYGGAGG [RPA2_Y14_YF]
label 0

Follow-up entry: EWQQIYTYDSG [JUP_Y20_T19I]
label 1

How about YYLGKYLQEVL [KLB_Y910] ?
label 0

====

Target: MERTK (UniProt Q12866)
Sequence (Q12866 whole entry, looked up): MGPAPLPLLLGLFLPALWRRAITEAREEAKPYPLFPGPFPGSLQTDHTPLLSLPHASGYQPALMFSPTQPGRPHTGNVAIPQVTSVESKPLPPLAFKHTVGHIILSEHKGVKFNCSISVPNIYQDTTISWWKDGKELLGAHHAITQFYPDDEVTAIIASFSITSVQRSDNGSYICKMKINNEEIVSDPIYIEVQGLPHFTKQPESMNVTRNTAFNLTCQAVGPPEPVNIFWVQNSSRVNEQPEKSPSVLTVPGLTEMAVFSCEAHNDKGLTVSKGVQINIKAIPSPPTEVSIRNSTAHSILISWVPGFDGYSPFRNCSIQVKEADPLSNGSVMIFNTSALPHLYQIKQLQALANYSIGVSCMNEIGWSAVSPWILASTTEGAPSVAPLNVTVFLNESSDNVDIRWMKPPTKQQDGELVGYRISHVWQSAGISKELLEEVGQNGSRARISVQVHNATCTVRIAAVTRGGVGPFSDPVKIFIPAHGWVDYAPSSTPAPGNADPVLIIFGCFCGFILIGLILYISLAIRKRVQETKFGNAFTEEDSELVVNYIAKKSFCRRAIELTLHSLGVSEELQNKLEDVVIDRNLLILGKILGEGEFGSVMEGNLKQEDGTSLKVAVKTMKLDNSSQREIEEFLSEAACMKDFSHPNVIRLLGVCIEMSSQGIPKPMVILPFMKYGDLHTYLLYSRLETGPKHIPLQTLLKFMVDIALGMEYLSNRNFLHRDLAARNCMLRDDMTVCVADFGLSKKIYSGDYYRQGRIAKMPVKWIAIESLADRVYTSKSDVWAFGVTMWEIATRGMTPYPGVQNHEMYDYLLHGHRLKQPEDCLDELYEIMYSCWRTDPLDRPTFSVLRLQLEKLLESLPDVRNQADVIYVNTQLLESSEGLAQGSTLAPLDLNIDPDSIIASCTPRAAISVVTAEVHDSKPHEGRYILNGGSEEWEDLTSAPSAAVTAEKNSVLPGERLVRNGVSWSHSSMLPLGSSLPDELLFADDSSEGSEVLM
Assay: phosphorylation enrichment, bacterial display (enrichment ratio); higher = better substrate or ligand; peptides without Tyr show the background
Below, each entry is listed with its recorded phosphorylation enrichment.
API doc: respond with a numeric literal and nothing else, no unit.

Record KAIMTYVSSFY [ACTN4_Y260] : what is its phosphorylation enrichment with MERTK (UniProt Q12866)?
0.424

Then VRFMAYTDEIF [F8_Y450_T454I] ?
0.697

Do the same for SVVVCYEPPEV [TP53_Y220_P219C] please
0.457

Ok, now ACLSLYGGFVE [MVD_Y164_R161L]
0.607

Next sequence: DSILVYQRKEQ [USH2A_Y1909_G1911R]
0.475

Another sequence to look at: EQSGSYIWVPA [DLG1_Y895]
3.33

Continue with NALAQYQEMEK [BBS4_Y395]
0.467

====

System: c-Abl (mouse)
Assay: phosphorylation enrichment, bacterial display (enrichment ratio); higher = better substrate or ligand; peptides without Tyr show the background
Below, each of the sequences is paired with its reported phosphorylation enrichment value.
Please state the value as a number alone, without comment.

Known phosphorylation enrichment results, listed for orientation:
>>> print(df.to_string())
                     item_sequence  reported_result
0   ENELTYFCFKK [CD59_Y86_C89Y_YF]             3.38
1     ADEEEYEIIAA [FEStide_E_2014]             1.09
2  TDTQLYGRFGS [ITGA2B_Y384_G380D]            0.769
3      KANEYYPVVLI [ADAMTS18_Y765]              1.6
4        SSVKPYRVFCD [FGB_Y266_YF]              0.7

What does the data say about its phosphorylation enrichment? Entry: NGTVSYAIVAG [CDH23_Y1672_T1671S]
0.591
